- System Under Test: Mu-type opioid receptor (Cavia porcellus)
- Sequence (P97266 whole entry): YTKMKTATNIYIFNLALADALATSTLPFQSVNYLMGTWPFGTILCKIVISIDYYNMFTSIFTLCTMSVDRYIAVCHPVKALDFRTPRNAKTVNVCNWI
- Assay Explanation: Agonist activity at mu opioid receptor in Hartley guinea pig assessed as inhibition of electrically evoked-contraction
pIC50: −log10 of the molar value.
Recorded Endpoint: pIC50

Cc1cc(O)cc(C)c1C[C@H](N)C(=O)N1Cc2ccccc2C[C@@H]1C(=O)NCCCC[C@H](NC(=O)c1ccc(F)cc1)C(=O)O    5.72
Cc1cc(O)cc(C)c1C[C@H](N)C(=O)N1Cc2ccccc2C[C@H]1C(=O)N[C@@H](Cc1ccccc1)C(=O)N[C@@H](CCCCNC(=O)c1ccc(F)cc1)C(=O)O    7.30

* * *

- System Under Test: Delta-type opioid receptor (Mus musculus, UniProt P32300)
- Sequence (P32300 whole entry): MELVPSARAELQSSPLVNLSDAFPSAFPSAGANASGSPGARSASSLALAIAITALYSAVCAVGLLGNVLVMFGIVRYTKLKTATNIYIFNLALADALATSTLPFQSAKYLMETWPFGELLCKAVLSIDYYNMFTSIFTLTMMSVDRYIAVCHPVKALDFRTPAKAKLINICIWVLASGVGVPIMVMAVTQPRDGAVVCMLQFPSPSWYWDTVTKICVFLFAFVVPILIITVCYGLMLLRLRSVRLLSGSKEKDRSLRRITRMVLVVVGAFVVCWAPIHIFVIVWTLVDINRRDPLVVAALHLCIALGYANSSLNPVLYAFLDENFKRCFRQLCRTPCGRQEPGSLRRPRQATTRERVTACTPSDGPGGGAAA
- Assay Explanation: Agonist activity at delta opioid receptor in mouse vas deferens assessed as inhibition of electrically evoked-contraction
Recorded Endpoint: IC50 (µM)

Cc1cc(O)cc(C)c1C[C@H](N)C(=O)N1Cc2ccccc2C[C@H]1C(=O)N[C@@H](Cc1ccccc1)C(=O)N[C@@H](CCCCNC(=O)c1ccc(F)cc1)C(=O)O    5.18

* * *

- System Under Test: Mu-type opioid receptor (Rattus norvegicus, UniProt P33535)
- Sequence (P33535 whole entry): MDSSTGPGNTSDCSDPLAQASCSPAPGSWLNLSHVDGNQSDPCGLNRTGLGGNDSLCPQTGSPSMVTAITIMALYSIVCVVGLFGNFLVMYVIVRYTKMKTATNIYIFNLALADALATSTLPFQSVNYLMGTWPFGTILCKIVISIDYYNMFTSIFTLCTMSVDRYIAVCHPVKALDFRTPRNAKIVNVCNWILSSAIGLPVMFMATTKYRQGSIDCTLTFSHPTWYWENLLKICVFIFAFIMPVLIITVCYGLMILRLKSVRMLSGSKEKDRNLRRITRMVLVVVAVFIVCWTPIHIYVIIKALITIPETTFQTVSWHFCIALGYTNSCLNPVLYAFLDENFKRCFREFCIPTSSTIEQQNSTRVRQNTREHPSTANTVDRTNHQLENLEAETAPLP
- Assay Explanation: Displacement of [3H]DAMGO from mu opioid receptor in Sprague-Dawley rat brain P2 synaptosomal membrane
pKi: −log10 of the molar value. Square brackets hold non-standard residues; d marks the D form. Peptide text beside a SMILES is read from it. * marks the point of attachment. Dmt = Cc1cc(O)cc(C)c1C[C@H](N)C(=O)O; Tic = O=C(O)[C@@H]1Cc2ccccc2CN1; Cbz = O=C(OCc1ccccc1)*
Recorded Endpoint: pKi

Cc1cc(O)cc(C)c1C[C@H](N)C(=O)N1Cc2ccccc2C[C@H]1C(=O)N[C@@H](Cc1ccccc1)C(=O)N[C@@H](CCCCNC(=O)OCc1ccccc1)C(=O)O (H-[Dmt][Tic]FK(Cbz)-OH)    8.56
Cc1cc(O)cc(C)c1C[C@H](N)C(=O)N1Cc2ccccc2C[C@@H]1C(=O)NCCCC[C@H](NC(=O)c1ccc(F)cc1)C(=O)O    7.39
Cc1cc(O)cc(C)c1C[C@H](N)C(=O)N1Cc2ccccc2C[C@H]1C(=O)N[C@@H](Cc1ccccc1)C(=O)N[C@@H](CCCCNC(=O)c1ccc(F)cc1)C(=O)O    7.88

* * *

- System Under Test: Delta-type opioid receptor (Rattus norvegicus, UniProt P33533)
- Sequence (P33533 whole entry): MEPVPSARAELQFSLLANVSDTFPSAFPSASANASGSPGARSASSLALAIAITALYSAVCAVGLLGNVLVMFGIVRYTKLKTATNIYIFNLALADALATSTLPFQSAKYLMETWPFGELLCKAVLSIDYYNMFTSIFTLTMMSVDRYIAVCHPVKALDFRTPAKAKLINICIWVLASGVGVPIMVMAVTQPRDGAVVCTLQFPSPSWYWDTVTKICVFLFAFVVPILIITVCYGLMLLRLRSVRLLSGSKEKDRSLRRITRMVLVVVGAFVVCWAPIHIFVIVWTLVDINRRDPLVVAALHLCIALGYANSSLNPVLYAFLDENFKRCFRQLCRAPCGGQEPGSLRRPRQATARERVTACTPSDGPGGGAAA
- Assay Explanation: Displacement of [3H]deltorphin2 from delta opioid receptor in Sprague-Dawley rat brain P2 synaptosomal membrane
pKi: −log10 of the molar value. Square brackets hold non-standard residues; d marks the D form. Peptide text beside a SMILES is read from it. * marks the point of attachment. Dmt = Cc1cc(O)cc(C)c1C[C@H](N)C(=O)O; Tic = O=C(O)[C@@H]1Cc2ccccc2CN1; Cbz = O=C(OCc1ccccc1)*
Recorded Endpoint: pKi

Cc1cc(O)cc(C)c1C[C@H](N)C(=O)N1Cc2ccccc2C[C@H]1C(=O)N[C@@H](Cc1ccccc1)C(=O)N[C@@H](CCCCNC(=O)OCc1ccccc1)C(=O)O (H-[Dmt][Tic]FK(Cbz)-OH)    10.72
Cc1cc(O)cc(C)c1C[C@H](N)C(=O)N1Cc2ccccc2C[C@@H]1C(=O)NCCCC[C@H](NC(=O)c1ccc(F)cc1)C(=O)O    9.76
Cc1cc(O)cc(C)c1C[C@H](N)C(=O)N1Cc2ccccc2C[C@H]1C(=O)N[C@@H](Cc1ccccc1)C(=O)N[C@@H](CCCCNC(=O)c1ccc(F)cc1)C(=O)O    9.61
